Would you kindly list residual activity for each of these molecules?
Target: Tyrosine-protein kinase receptor UFO (Homo sapiens)
Details: at 1 µM
Note: unit % is implicit; provide only the numeric part.

Consider the molecule COc1ccc(COc2ccc(Cc3cnc(N)nc3N)cc2OC)cc1 and give its recorded residual activity.
80

Consider the molecule O=c1cc(N2CCOCC2)oc2c1ccc1ccccc12 and give its recorded residual activity.
82

Consider the molecule O=c1cc(N2CCNCC2)oc2c(-c3ccccc3)cccc12 and give its recorded residual activity.
80

###

Would you kindly list residual activity for each of these compounds?
Target: LIM domain kinase 1 (Homo sapiens)
Conditions: at 1 µM
Note: unit % is implicit; provide only the numeric part.

Give residual activity; test system LIM domain kinase 1 (Homo sapiens); compound Nc1n[nH]c2nc3ccccc3nc12
89

Give residual activity; test system LIM domain kinase 1 (Homo sapiens); compound O=C1Nc2ccc(Cl)cc2/C1=C/c1cc(Cl)c(O)c(Cl)c1
88

Give residual activity; test system LIM domain kinase 1 (Homo sapiens); compound O=C(NC(NC(=S)Nc1ccc(F)c([N+](=O)[O-])c1)C(Cl)(Cl)Cl)C(c1ccccc1)c1ccccc1 (centres undefined)
90

Give residual activity; test system LIM domain kinase 1 (Homo sapiens); compound Cn1c2ccccc2c2c3c(c4c5ccccc5n(CCC#N)c4c21)CNC3=O
48

Give residual activity; test system LIM domain kinase 1 (Homo sapiens); compound CC(C)(C)n1nc(Cc2cccc3ccccc23)c2c(N)ncnc21
101

Give residual activity; test system LIM domain kinase 1 (Homo sapiens); compound Cn1sc(=O)n(Cc2ccccc2)c1=O
86

Give residual activity; test system LIM domain kinase 1 (Homo sapiens); compound COc1ccc2c(c1)c(C1=C(c3c[nH]c4ccccc34)C(=O)NC1=O)cn2CCCN(C)C
99

Give residual activity; test system LIM domain kinase 1 (Homo sapiens); compound NC(=O)Nc1sc(-c2ccc(F)cc2)cc1C(N)=O
46

Give residual activity; test system LIM domain kinase 1 (Homo sapiens); compound N#Cc1c(NC(=O)c2cccc3ccccc23)sc2c1CCCC2
92

Give residual activity; test system LIM domain kinase 1 (Homo sapiens); compound O=C1C(Cl)=C(N2C(=O)CCC2=O)C(=O)c2ccccc21
88

Give residual activity; test system LIM domain kinase 1 (Homo sapiens); compound Nc1ncnc2c1cnn2-c1ccccc1
99

Give residual activity; test system LIM domain kinase 1 (Homo sapiens); compound O=C(CCCc1ccc(-c2ccccc2F)cc1)Nc1ccc(O)cc1
96

Give residual activity; test system LIM domain kinase 1 (Homo sapiens); compound CN(C)S(=O)(=O)c1ccc2c(c1)/C(=C/c1cc3c([nH]1)CCCC3)C(=O)N2
90

Give residual activity; test system LIM domain kinase 1 (Homo sapiens); compound Nc1ncnc2c1c(-c1ccc(Oc3ccccc3)cc1)cn2C1CCCC1
72

###

Would you kindly list residual activity for each of these compounds?
Biological target: Macrophage colony-stimulating factor 1 receptor (Homo sapiens)
Conditions: at 10 µM
Note: unit % is implicit; provide only the numeric part.

Consider the compound CCCCc1c(-c2ccc(OC)cc2)[nH]c2nccnc12 and give its recorded residual activity.
8

Consider the compound O=C(c1ccccc1)c1ccc(N2CCOCC2)cc1O and give its recorded residual activity.
55

Consider the compound O=C1NC(=O)c2c1c1c3ccccc3[nH]c1n1cncc21 and give its recorded residual activity.
23

Consider the compound CC(C)(C)c1nc2c3ccc(F)cc3c3c(=O)[nH]ccc3c2[nH]1 and give its recorded residual activity.
18

Consider the compound CSc1nc(-c2ccc(F)cc2)c(-c2ccnc(NC(C)c3ccccc3)c2)[nH]1 (stereo not given) and give its recorded residual activity.
41

Consider the compound CCN(CC)CCNC(=O)c1c(C)[nH]c(/C=C2\C(=O)Nc3ccc(Cl)cc32)c1C and give its recorded residual activity.
0

Consider the compound Nc1nc(Nc2ccc(S(N)(=O)=O)cc2)nn1C(=O)c1c(F)cccc1F and give its recorded residual activity.
7

Consider the compound O=C1Cc2c([nH]c3ccc([N+](=O)[O-])cc23)-c2ccccc2N1 and give its recorded residual activity.
26

Consider the compound O=C(c1cc2cc(O)ccc2[nH]1)c1cc2cc(O)ccc2[nH]1 and give its recorded residual activity.
10

Consider the compound CCOc1nc(NC(=O)Cc2cc(OC)ccc2OC)cc(N)c1C#N and give its recorded residual activity.
53

Consider the compound Cn1sc(=O)n(Cc2ccccc2)c1=O and give its recorded residual activity.
80

Consider the compound NC(=O)c1cccc(-c2cc(Nc3ccc(OC(F)(F)F)cc3)ncn2)c1 and give its recorded residual activity.
73

Consider the compound Oc1cccc(-c2nc(N3CCOCC3)c3oc4ncccc4c3n2)c1 and give its recorded residual activity.
80

Consider the compound O=C(Nc1nc2ccccc2n1CCN1CCOCC1)c1cccc([N+](=O)[O-])c1 and give its recorded residual activity.
5

Consider the compound O=c1cc(N2CCNCC2)oc2c(-c3ccccc3)cccc12 and give its recorded residual activity.
78

Consider the compound CCN1/C(=C/C(C)=O)Sc2ccc(OC)cc21 and give its recorded residual activity.
66

Consider the compound O=C1Nc2ccccc2/C1=C\c1c(Cl)[nH]c2ccccc12 and give its recorded residual activity.
27

Consider the compound Cn1c2ccccc2c2c3c(c4c5ccccc5n(CCC#N)c4c21)CNC3=O and give its recorded residual activity.
5

Consider the compound CCCCc1c(-c2ccc(O)cc2)[nH]c2nccnc12 and give its recorded residual activity.
6

Consider the compound NC(=O)c1ccc(-c2nc(-c3ccc4c(c3)OCCO4)c(-c3ccccn3)[nH]2)cc1 and give its recorded residual activity.
64

Consider the compound Nc1ncnc2c1cnn2-c1ccccc1 and give its recorded residual activity.
67

Consider the compound Cc1cc(C)c(/C=C2\C(=O)Nc3ccccc32)[nH]1 and give its recorded residual activity.
0

Consider the compound N#Cc1c(NC(=O)c2cccc3ccccc23)sc2c1CCCC2 and give its recorded residual activity.
74

Consider the compound CC(C)N(CCC(=O)c1ccc2ccccc2c1)Cc1ccccc1 and give its recorded residual activity.
125

Consider the compound NCCNc1ncc(C(N)=O)c(Nc2cccc(C(F)(F)F)c2)n1 and give its recorded residual activity.
4
